# experimentalSystem: T1, ICAM-1-Fcγ (ICAM-1 residues of 1-480 fused to the Fc of human IgG, R&D Systems) (human, UniProt P05362 28-480)
# T1 construct: range 1-480; Bought (R&D Systems); also called ICAM-1-Fcγ chimera; not shown: Fc of human IgG
# T1 sequence (P05362 28-480 limits assumed, form in doubt): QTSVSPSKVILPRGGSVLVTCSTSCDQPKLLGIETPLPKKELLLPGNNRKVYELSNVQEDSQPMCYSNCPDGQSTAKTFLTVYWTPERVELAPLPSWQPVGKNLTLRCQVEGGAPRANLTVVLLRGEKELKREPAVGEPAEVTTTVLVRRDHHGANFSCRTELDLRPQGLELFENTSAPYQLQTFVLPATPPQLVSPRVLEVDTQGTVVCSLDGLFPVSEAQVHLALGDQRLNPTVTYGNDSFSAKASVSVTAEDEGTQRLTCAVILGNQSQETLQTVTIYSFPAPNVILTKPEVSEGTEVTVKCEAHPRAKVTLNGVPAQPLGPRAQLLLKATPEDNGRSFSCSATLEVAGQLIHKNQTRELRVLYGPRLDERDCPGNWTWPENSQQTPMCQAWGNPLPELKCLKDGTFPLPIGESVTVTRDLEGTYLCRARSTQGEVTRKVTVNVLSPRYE
# protocolNotes: flow cytometry on yeast-displayed I domain, ICAM-1-Fcγ 10 µg/ml
measure: ICAM-1 (% ASFI of HA)

Here is how some binders turned out for ICAM-1 (% ASFI of HA).
>  <binder>
αL I domain clone f2 (L289G), yeast-displayed (receptor, yeast surface display; not shown: Aga2, linker and hemagglutinin tag of pCTCON; c-myc tag) NVDLVFLFDGSMSLQPDEFQKILDFMKDVMKKLSNTSYQFAAVQFSTSYKTEFDFSDYVKWKDPDALLKHVKHMLLLTNTFGAINYVATEVFREELGARPDATKVLIIITDGEATDSGNIDAAKDIIRYIIGIGKHFQTKESQETLHKFASKPASEFVKIGDTFEKLKDLFTELQKKIYVIEGTSKQDLT

>  <ICAM-1 (% ASFI of HA)>
74 % ASFI of HA

$$$$
>  <binder>
αL I domain clone m4 (F134L, K252E, F265S), yeast-displayed (receptor, yeast surface display; not shown: Aga2, linker and hemagglutinin tag of pCTCON; c-myc tag) NVDLVLLFDGSMSLQPDEFQKILDFMKDVMKKLSNTSYQFAAVQFSTSYKTEFDFSDYVKWKDPDALLKHVKHMLLLTNTFGAINYVATEVFREELGARPDATKVLIIITDGEATDSGNIDAAEDIIRYIIGIGKHSQTKESQETLHKFASKPASEFVKILDTFEKLKDLFTELQKKIYVIEGTSKQDLT

>  <ICAM-1 (% ASFI of HA)>
31 % ASFI of HA

$$$$

--- query ---
Provide one value: measured ICAM-1 (% ASFI of HA) of αL I domain clone m10 (F265L, E293G, K294E, K296E, V308I), yeast-displayed (receptor, yeast surface display; not shown: Aga2, linker and hemagglutinin tag of pCTCON; c-myc tag) NVDLVFLFDGSMSLQPDEFQKILDFMKDVMKKLSNTSYQFAAVQFSTSYKTEFDFSDYVKWKDPDALLKHVKHMLLLTNTFGAINYVATEVFREELGARPDATKVLIIITDGEATDSGNIDAAKDIIRYIIGIGKHLQTKESQETLHKFASKPASEFVKILDTFGELEDLFTELQKKIYIIEGTSKQDLT
16 % ASFI of HA
